# method: chemical genetic growth profiling, strain panel (AID 1159580);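 also: tested at 20 µM; growth read once vehicle control cultures reached saturation at 30 °C; 1 = growth at the plate median or of vehicle wells; lower values mean less growth of the strain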
# settings: S. cerevisiae deletion strains, growth OD, locus YAL040C, strain CLN3, stronger effect = lower value
Out of some 5,500 compounds screened, about 2,000 (36%) were called active. Inconclusive results (about 18%) are left out. This is one part of the list.
metric: normalized growth

{"compound": "Cc1ccc(=O)n(-c2ccccc2)c1", "metric": "normalized growth", "numericValue": 1.01}
{"compound": "Cc1cc(C(C)(C)C)cc(C)c1CC1=NCCN1", "metric": "normalized growth", "numericValue": 0.976}
{"compound": "CN(C)C(=O)N=NC(=O)N(C)C", "metric": "normalized growth", "numericValue": 0.985}
{"compound": "COc1ccc(CCN(C)CCCC(C#N)(c2cc(OC)c(OC)c(OC)c2)C(C)C)cc1OC (configuration not stated)", "metric": "normalized growth", "numericValue": 1.01}
{"compound": "NC(C(=O)O)c1cc(=O)[nH]o1 (configuration not stated)", "metric": "normalized growth", "numericValue": 1.01}
{"compound": "CN1CCN(CCCN2c3ccccc3Sc3ccc(C(F)(F)F)cc32)CC1", "metric": "normalized growth", "numericValue": 0.989}
{"compound": "CCCCOC(=O)NS(=O)(=O)c1sc(CC(C)C)cc1-c1ccc(Cn2c(CC)nc3c(C)cc(C)nc32)cc1", "metric": "normalized growth", "numericValue": 1.01}

---

# method: chemical genetic growth profiling, strain panel (AID 1159580);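 also: tested at 20 µM; growth read once vehicle control cultures reached saturation at 30 °C; 1 = growth at the plate median or of vehicle wells; lower values mean less growth of the strain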
# settings: S. cerevisiae deletion strains, growth OD, locus YEL061C, strain CIN8, stronger effect = lower value
Hit rate of the full screen: of about 5,500 compounds, about 2,000 (36%) were called active. Not shown: some 18% with an inconclusive outcome. The list shows a part of the results.
Catalogue of normalized growth values
metric: normalized growth

{"compound": "COc1cc(O)cc(OC)c1OC", "metric": "normalized growth", "numericValue": 1.02}
{"compound": "CC[C@@H](CO)NC(=O)[C@@H]1C=C2c3cccc4[nH]cc(c34)C[C@H]2N(C)C1", "metric": "normalized growth", "numericValue": 0.998}
{"compound": "CC(=O)O[C@H]1CC[C@]2(C)C3CC(=O)[C@]4(C)C(C(C)=O)=CCC4C3CC[C@H]2C1 (stereo not given in full)", "metric": "normalized growth", "numericValue": 0.993}
{"compound": "CC1=CC2C(C(C)C)CCC(C)(O)C2CC1 (stereo not given)", "metric": "normalized growth", "numericValue": 0.974}
{"compound": "COc1c2c(cc3c1OCO3)C13C=C[C@H](OC)CC1N(C2)CC3O (stereo not given in full)", "metric": "normalized growth", "numericValue": 1}
{"compound": "NC1C[C@H]1c1ccccc1 (stereo not given in full)", "metric": "normalized growth", "numericValue": 1.01}
{"compound": "NC[C@H]1O[C@H](O[C@H]2[C@H](O)[C@@H](O[C@H]3O[C@H](CO)[C@@H](O)[C@H](N)[C@H]3O)[C@H](N)C[C@@H]2N)[C@H](N)C[C@@H]1O", "metric": "normalized growth", "numericValue": 0.988}
{"compound": "COc1cc2cc3c4cc(OC)c(OC)cc4cc[n+]3c(C)c2cc1OC", "metric": "normalized growth", "numericValue": 1.01}
{"compound": "O=C(O)c1cc(=O)c2cccc(O)c2[nH]1", "metric": "normalized growth", "numericValue": 0.993}
{"compound": "N#C/C(=C\\N(CCS(=O)(=O)c1ccc(Cl)cc1)Cc1cccs1)S(=O)(=O)c1ccc(Cl)cc1", "metric": "normalized growth", "numericValue": 0.973}
{"compound": "COc1cc2c(cc1OC)[C@@]13CCN4CC5=CCOC6CC(=O)N2C1[C@H]6[C@H]5C[C@H]43 (stereo not given in full)", "metric": "normalized growth", "numericValue": 1.01}
{"compound": "O=c1cc(C(F)(F)F)[nH]c2cc(Cl)cc(Cl)c12", "metric": "normalized growth", "numericValue": 0.745}
{"compound": "O=c1cc(C(F)(F)F)[nH]c2c(Cl)cccc12", "metric": "normalized growth", "numericValue": 0.886}
{"compound": "N#Cc1nccnc1Sc1ccc(Cl)cc1", "metric": "normalized growth", "numericValue": 0.914}
{"compound": "O=C(CCc1ccc(O)cc1)c1c(O)cc(O)cc1O[C@@H]1O[C@H](CO)[C@@H](O)[C@H](O)[C@H]1O", "metric": "normalized growth", "numericValue": 1.02}
{"compound": "CN(C(=O)Nc1ccccc1)n1cnc2ccccc2c1=O", "metric": "normalized growth", "numericValue": 1.02}
{"compound": "CNC(Cc1c[nH]c2ccccc12)C(=O)O (stereo not given)", "metric": "normalized growth", "numericValue": 0.987}
{"compound": "NC[C@H]1O[C@H](O[C@H]2C(O[C@@H]3O[C@H](CO)[C@@H](O)[C@H]3O)[C@@H](O)[C@H](N)C[C@@H]2N)[C@H](N)[C@@H](O)[C@@H]1O (stereo not given in full)", "metric": "normalized growth", "numericValue": 0.999}
{"compound": "CCOC(=O)c1cnc2nc(SC)nn2c1N", "metric": "normalized growth", "numericValue": 1}
{"compound": "CCC(=O)Nc1cc(OC)cc(OC)c1", "metric": "normalized growth", "numericValue": 1}

---

# method: chemical genetic growth profiling, strain panel (AID 1159580);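 also: tested at 20 µM; growth read once vehicle control cultures reached saturation at 30 °C; 1 = growth at the plate median or of vehicle wells; lower values mean less growth of the strain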
# settings: S. cerevisiae deletion strains, growth OD, locus YMR223W, strain ubp8
Hit rate of the full screen: of about 5,500 compounds, about 2,000 (36%) were called active. Inconclusive results (about 18%) are left out. Rule as the data show it: active = normalized growth mostly below about 0.91 (no sharp cut-off); inconclusive = no clear call, values can overlap the other calls; inactive = mostly above about 0.92. This is one part of the list. *1 amine or outer side, *2 acyl side, *3 side chain or, on linkers, in order; H or OH if unused. Where a SMILES comes first, the peptide text is derived from it. Bridges are numbered along the chain shown (N, C = ends). [ ]: non-standard residue; d: D form. The star is where a group is joined. ξ: configuration not given here. ΔAla(E,3-NHCONH2) = NC(=O)N/C=C(/N)C(=O)O; X2 = NC1=NCCC(C(N[*:1])C(=O)[*:2])N1; ξβ3hOrn = NCCCC(N)CC(=O)*; Orn = NCCC[CH](N)C(=O)O; Dap = NC[CH](N)C(=O)O
Outcomes: active, inactive

{"compound": "CC1(C)C(=O)[C@@H]2C[C@@]3(O)C4=CC(=O)O[C@@H](c5ccoc5)[C@]4(C)CCC3[C@@](C)(C2=O)[C@H]1CC(=O)O (stereo partly drawn)", "cat": "inactive"}
{"compound": "CC1(C)C=Cc2cc3ccc(=O)oc3cc2O1", "cat": "inactive"}
{"compound": "CCOC([O-])=Nc1c[n+](N2CCOCC2)no1", "cat": "inactive"}
{"compound": "C1CCC(C(CC2CCCCN2)C2CCCCC2)CC1 (stereo not drawn)", "cat": "active"}
{"compound": "CC[C@H]1CN2CCc3cc(OC)c(OC)cc3C2C[C@@H]1CC1NCCc2cc(OC)c(OC)cc21 (stereo partly drawn)", "cat": "inactive"}
{"compound": "CC(=O)CC1CCCCN1 (stereo not drawn)", "cat": "inactive"}
{"compound": "CN1C(=O)CCS(=O)(=O)C1c1ccc(Cl)cc1 (stereo not drawn)", "cat": "inactive"}
{"compound": "Cc1cc(C(C)(C)C)cc(C)c1CC1=NCCN1", "cat": "inactive"}
{"compound": "CC[C@H]1OC(=O)[C@H](C)[C@@H](O[C@H]2C[C@@](C)(OC)[C@@H](O)[C@H](C)O2)[C@H](C)[C@@H](O[C@@H]2O[C@H](C)C[C@H](N(C)C)[C@H]2O)[C@](C)(O)C[C@@H](C)[C@@H]2N[C@@H](COCCOC)O[C@H]([C@H]2C)[C@]1(C)O", "cat": "inactive"}
{"compound": "CCOc1ccc(C(=O)c2cc(O)c(OC)c(OC)c2O)cc1", "cat": "inactive"}
{"compound": "CO[C@H]1C[C@H](O[C@H]2[C@H](C)[C@@H](OC3O[C@H](C)C[C@H](N(C)C)[C@H]3OC(C)=O)[C@@H](C)C[C@]3(CO3)C(=O)[C@H](C)[C@@H](OC(C)=O)[C@@H](C)[C@@H](C)OC(=O)[C@@H]2C)O[C@@H](C)[C@@H]1OC(C)=O (stereo partly drawn)", "cat": "inactive"}
{"compound": "CCc1cccc2c3c([nH]c12)C(CC)(CC(=O)O)OCC3 (stereo not drawn)", "cat": "inactive"}
{"compound": "NCCCC(N)CC(=O)NCC1NC(=O)C(CO)NC(=O)C(N)CNC(=O)C(C2CCN=C(N)N2)NC(=O)/C(=C\\NC(N)=O)NC1=O (stereo not drawn) (H-[Dap]S[Dap](ξβ3hOrn)[ΔAla(E,3-NHCONH2)][X2]; lactam 1-C; configuration not given here)", "cat": "inactive"}
{"compound": "COc1cc(O)cc(OC)c1OC", "cat": "inactive"}
{"compound": "COc1ccc(C(=O)c2ccccc2)c(O)c1O", "cat": "inactive"}
{"compound": "CC1(C)S[C@@H]2[C@H](NC(=O)Cc3ccccc3)C(=O)N2[C@H]1C(=O)O", "cat": "inactive"}
{"compound": "NCC1OC(OC2C(CO)OC(OC3C(O)C(N)CC(N)C3OC3OC(CO)C(O)CC3N)C2O)C(N)C(O)C1OC1OC(CO)C(O)C(O)C1O (stereo not drawn)", "cat": "inactive"}
{"compound": "COc1ccc2c(c1OC)OC[C@@H](c1ccc(OC)c(OC)c1OC)C2", "cat": "inactive"}
{"compound": "CCOc1ccc(NC(C)=O)cc1", "cat": "inactive"}
{"compound": "OCCN1CCN(CCCN2c3ccccc3Sc3ccc(C(F)(F)F)cc32)CC1", "cat": "inactive"}
{"compound": "CCOc1ccc(C(=O)c2ccc(O)c(O)c2O)cc1", "cat": "active"}
{"compound": "COc1cc2c(cc1O)CCNC2C (stereo not drawn)", "cat": "inactive"}
{"compound": "CC[C@@H](CO)NC(=O)[C@@H]1C=C2c3cccc4[nH]cc(c34)C[C@H]2N(C)C1", "cat": "inactive"}
{"compound": "OC(c1cc(C(F)(F)F)nc2c(C(F)(F)F)cccc12)C1CCCCN1 (stereo not drawn)", "cat": "inactive"}
{"compound": "O=C(O)c1cc(=O)c2c(Cl)cc(Cl)cc2[nH]1", "cat": "inactive"}
{"compound": "CC(C)CC1NC(=O)C(CCCN)NC(=O)C(C(C)C)NC(=O)C2CCCN2C(=O)C(Cc2ccccc2)NC(=O)C(CC(C)C)NC(=O)C(CCCN)NC(=O)C(C(C)C)NC(=O)C2CCCN2C(=O)C(Cc2ccccc2)NC1=O (stereo not drawn) (cyclo(FPV[Orn]LFPV[Orn]L); configuration not given here)", "cat": "inactive"}
{"compound": "CC(NCCC(c1ccccc1)c1ccccc1)c1ccccc1 (stereo not drawn)", "cat": "inactive"}
{"compound": "NC1C[C@H]1c1ccccc1 (stereo partly drawn)", "cat": "inactive"}
{"compound": "c1ccc([C@H]2CN3CCSC3=N2)cc1", "cat": "inactive"}
{"compound": "CN1CCN(CC(=O)N2c3ccccc3C(=O)Nc3cccnc32)CC1", "cat": "inactive"}
{"compound": "COC1(C)CCC2OC2(C)CCC2C1CC2(C)C (stereo not drawn)", "cat": "inactive"}
{"compound": "C=C(C)[C@@H]1CC[C@]2(CO)CC[C@]3(C)[C@H](CCC4[C@@]5(C)CC[C@H](O)C(C)(C)C5CC[C@]43C)C12 (stereo partly drawn)", "cat": "inactive"}
{"compound": "O=C(O)c1cc([N+](=O)[O-])ccc1NCCCc1ccccc1", "cat": "inactive"}
